test system: RAW264.7; assay: Antiinflammatory activity in mouse RAW264.7 cells assessed as inhibition of LPS-induced NO production at 20 uM relative to control; format: functional
In this section, each of the compounds is paired with its reported inhibition at 20 µM.

Here are 3 compounds together with their reported answers.
{"columns": ["ITEM SMILES", "MEASUREMENT TYPE", "EXPERIMENTAL RESULT"],
 "data": [
  ["CC(C)c1ccc(CO[C@@H]2O[C@H](CO[C@@H]3O[C@@H](C)[C@H](O)[C@@H](O)[C@H]3O)[C@@H](O)[C@H](O)[C@H]2O)cc1", "inhibition at 20 µM", "23.6%"],
  ["C[C@]1(C(=O)OC[C@H]2O[C@@H](O[C@]34CC5C3(COC(=O)c3ccccc3)[C@H]3O[C@]5(O)C[C@]4(C)O3)[C@H](O)[C@@H](O)[C@@H]2O)[C@@H]2CC[C@@H](CO)[C@H]1C2", "inhibition at 20 µM", "20.9%"],
  ["CC1(C)[C@@H]2C[C@H]1[C@@H](O)C[C@@H]2C(=O)OC[C@H]1O[C@@H](O[C@]23CC4C2(COC(=O)c2ccccc2)[C@H]2O[C@]4(O)C[C@]3(C)O2)[C@H](O)[C@@H](O)[C@@H]1O", "inhibition at 20 µM", "23.3%"]
]}

Per the records, this compound ( C[C@]1(C(=O)OC[C@H]2O[C@@H](O[C@]34CC5C3(COC(=O)c3ccccc3)[C@H]3O[C@]5(O)C[C@]4(C)O3)[C@H](O)[C@@H](O)[C@@H]2O)[C@@H]2CC[C@H](CO)[C@H]1C2 ) has inhibition at 20 µM equal to 22.8%
